Data provenance is paper PMC7531004.

System: Streptococcus pneumoniae NBRC 102642
EXPERIMENTAL_SETUP: NBRC 102642
Where a SMILES comes first, the peptide text is derived from it. [ ]: non-standard residue; d: D form. The star is where a group is joined. NHCH2CH2OH = OCCN*; For = O=C*
METRIC: Antibacterial activity MIC

[
  {
    "MOLECULE": "CC(C)C[C@@H](NC(=O)[C@H](C)NC(=O)CNC(=O)[C@@H](NC=O)C(C)C)C(=O)N[C@@H](C)C(=O)N[C@@H](C(=O)N[C@H](C(=O)N[C@@H](C(=O)N[C@@H](Cc1c[nH]c2ccccc12)C(=O)N[C@@H](C(=O)N[C@@H](Cc1c[nH]c2ccccc12)C(=O)N[C@@H](C(=O)N[C@@H](Cc1c[nH]c2ccccc12)C(=O)N[C@@H](C(=O)N[C@@H](Cc1c[nH]c2ccccc12)C(=O)NCCO)C(C)C)C(C)C)C(C)C)C(C)C)C(C)C)C(C)C [B03] (For-VGA[dL]A[dV]V[dV]W[dV]W[dV]W[dV]W-NHCH2CH2OH)",
    "ASSAYED_SYSTEM": "Streptococcus pneumoniae NBRC 102642",
    "RESULT": "4.2 nM"
  }
]

---

Test system: Streptococcus pyogenes SSI-9
PROTOCOL_NOTES: Antibacterial activity assay of bead-derived peptides (three concentrations)
Assay type: cell-based
Parameters: key: +++: inhibition by the 640-fold diluted peptide solution; ++: inhibition by the 160-fold diluted solution; +: inhibition by the 40-fold diluted solution; -: no inhibition
EXPERIMENTAL_SETUP: S. pyogenes, bead-derived peptide solution, three concentrations
Where a SMILES comes first, the peptide text is derived from it. [ ]: non-standard residue; d: D form. The star is where a group is joined. NHCH2CH2OH = OCCN*; For = O=C*

[
  {
    "MOLECULE": "CC(C)C[C@@H](NC(=O)[C@H](C)NC(=O)[C@H](NC(=O)[C@H](C)NC(=O)CNC(=O)[C@@H](NC=O)C(C)C)[C@H](C)O)C(=O)N[C@H](C(=O)N[C@H](CC(C)C)C(=O)N[C@@H](Cc1c[nH]c2ccccc12)C(=O)N[C@@H](C(=O)N[C@@H](Cc1c[nH]c2ccccc12)C(=O)N[C@H](CC(C)C)C(=O)N[C@@H](Cc1c[nH]c2ccccc12)C(=O)N[C@@H](C(=O)N[C@@H](Cc1c[nH]c2ccccc12)C(=O)NCCO)C(C)C)[C@H](C)O)C(C)C [compound 7135] (For-VGA[dT]A[dL]V[dL]W[dT]W[dL]W[dV]W-NHCH2CH2OH)",
    "antibacterial activity": "-"
  },
  {
    "MOLECULE": "CNC(=O)C[C@@H](NC(=O)[C@@H](NC(=O)[C@H](NC(=O)[C@H](C)NC(=O)[C@H](NC(=O)[C@H](C)NC(=O)CNC(=O)[C@@H](NC=O)C(C)C)C(C)C)C(C)C)C(C)C)C(=O)N[C@@H](Cc1c[nH]c2ccccc12)C(=O)N[C@H](CC(C)C)C(=O)N[C@@H](Cc1c[nH]c2ccccc12)C(=O)N[C@H](CC(C)C)C(=O)N[C@@H](Cc1c[nH]c2ccccc12)C(=O)N[C@@H](C(=O)N[C@@H](Cc1c[nH]c2ccccc12)C(=O)NCCO)C(C)C [compound 6510] (For-VGA[dV]A[dV]V[dD](NHMe)W[dL]W[dL]W[dV]W-NHCH2CH2OH)",
    "antibacterial activity": "-"
  },
  {
    "MOLECULE": "CC(C)C[C@@H](NC(=O)[C@H](C)NC(=O)[C@H](NC(=O)[C@H](C)NC(=O)CNC(=O)[C@@H](NC=O)C(C)C)C(C)C)C(=O)N[C@H](C(=O)N[C@@H](C(=O)N[C@@H](Cc1c[nH]c2ccccc12)C(=O)N[C@@H](C(=O)N[C@@H](Cc1c[nH]c2ccccc12)C(=O)N[C@@H](C(=O)N[C@@H](Cc1c[nH]c2ccccc12)C(=O)N[C@@H](C(=O)N[C@@H](Cc1c[nH]c2ccccc12)C(=O)NCCO)C(C)C)C(C)C)C(C)C)C(C)C)C(C)C [compound 8909] (For-VGA[dV]A[dL]V[dV]W[dV]W[dV]W[dV]W-NHCH2CH2OH)",
    "antibacterial activity": "+"
  },
  {
    "MOLECULE": "CC(C)C[C@@H](NC(=O)[C@H](Cc1c[nH]c2ccccc12)NC(=O)[C@@H](CC(C)C)NC(=O)[C@H](Cc1c[nH]c2ccccc12)NC(=O)[C@H](NC(=O)[C@H](Cc1c[nH]c2ccccc12)NC(=O)[C@@H](CC(C)C)NC(=O)[C@@H](NC(=O)[C@H](NC(=O)[C@H](C)NC(=O)[C@H](NC(=O)[C@H](C)NC(=O)CNC(=O)[C@@H](NC=O)C(C)C)C(C)C)C(C)C)C(C)C)C(C)C)C(=O)N[C@@H](Cc1c[nH]c2ccccc12)C(=O)NCCO [compound 12538] (For-VGA[dV]A[dV]V[dL]W[dV]W[dL]W[dL]W-NHCH2CH2OH)",
    "antibacterial activity": "-"
  },
  {
    "MOLECULE": "CC(C)C[C@@H](NC(=O)[C@H](C)NC(=O)[C@H](NC(=O)[C@H](C)NC(=O)CNC(=O)[C@@H](NC=O)C(C)C)C(C)C)C(=O)N[C@H](C(=O)N[C@@H](C(=O)N[C@@H](Cc1c[nH]c2ccccc12)C(=O)N[C@H](CC(C)C)C(=O)N[C@@H](Cc1c[nH]c2ccccc12)C(=O)N[C@H](CC(C)C)C(=O)N[C@@H](Cc1c[nH]c2ccccc12)C(=O)N[C@@H](C(=O)N[C@@H](Cc1c[nH]c2ccccc12)C(=O)NCCO)C(C)C)C(C)C)C(C)C [compound 5872] (For-VGA[dV]A[dL]V[dV]W[dL]W[dL]W[dV]W-NHCH2CH2OH)",
    "antibacterial activity": "+"
  },
  {
    "MOLECULE": "CC(C)C[C@@H](NC(=O)[C@H](C)NC(=O)[C@H](NC(=O)[C@H](C)NC(=O)CNC(=O)[C@@H](NC=O)C(C)C)C(C)C)C(=O)N[C@H](C(=O)N[C@@H](C(=O)N[C@@H](Cc1c[nH]c2ccccc12)C(=O)N[C@@H](C(=O)N[C@@H](Cc1c[nH]c2ccccc12)C(=O)N[C@@H](C(=O)N[C@@H](Cc1c[nH]c2ccccc12)C(=O)N[C@H](CC(C)C)C(=O)N[C@@H](Cc1c[nH]c2ccccc12)C(=O)NCCO)[C@H](C)O)C(C)C)C(C)C)C(C)C [compound 2727] (For-VGA[dV]A[dL]V[dV]W[dV]W[dT]W[dL]W-NHCH2CH2OH)",
    "antibacterial activity": "-"
  },
  {
    "MOLECULE": "CC(C)C[C@@H](NC(=O)[C@H](C)NC(=O)[C@H](NC(=O)[C@H](C)NC(=O)CNC(=O)[C@@H](NC=O)C(C)C)C(C)C)C(=O)N[C@H](C(=O)N[C@@H](C(=O)N[C@@H](Cc1c[nH]c2ccccc12)C(=O)N[C@@H](C(=O)N[C@@H](Cc1c[nH]c2ccccc12)C(=O)N[C@H](CC(C)C)C(=O)N[C@@H](Cc1c[nH]c2ccccc12)C(=O)N[C@@H](C(=O)N[C@@H](Cc1c[nH]c2ccccc12)C(=O)NCCO)[C@H](C)O)C(C)C)C(C)C)C(C)C [compound 8731] (For-VGA[dV]A[dL]V[dV]W[dV]W[dL]W[dT]W-NHCH2CH2OH)",
    "antibacterial activity": "-"
  },
  {
    "MOLECULE": "CC(C)C[C@@H](NC(=O)[C@H](C)NC(=O)[C@H](NC(=O)[C@H](C)NC(=O)CNC(=O)[C@@H](NC=O)C(C)C)C(C)C)C(=O)N[C@H](C(=O)N[C@@H](C(=O)N[C@@H](Cc1c[nH]c2ccccc12)C(=O)N[C@@H](C(=O)N[C@@H](Cc1c[nH]c2ccccc12)C(=O)N[C@H](CC(C)C)C(=O)N[C@@H](Cc1c[nH]c2ccccc12)C(=O)N[C@@H](C(=O)N[C@@H](Cc1c[nH]c2ccccc12)C(=O)NCCO)C(C)C)C(C)C)[C@H](C)O)C(C)C [compound 9633] (For-VGA[dV]A[dL]V[dT]W[dV]W[dL]W[dV]W-NHCH2CH2OH)",
    "antibacterial activity": "-"
  }
]

---

Test system: P388 mouse leukemia cells
EXPERIMENTAL_SETUP: 92 h
Where a SMILES comes first, the peptide text is derived from it. [ ]: non-standard residue; d: D form. The star is where a group is joined. NHCH2CH2OH = OCCN*; For = O=C*
Listed below: cell viability/% values for each entry.

[
  {
    "COMPOUND": "CC(C)C[C@@H](NC(=O)[C@H](C)NC(=O)CNC(=O)[C@@H](NC=O)C(C)C)C(=O)N[C@@H](C)C(=O)N[C@@H](C(=O)N[C@H](C(=O)N[C@@H](C(=O)N[C@@H](Cc1c[nH]c2ccccc12)C(=O)N[C@@H](C(=O)N[C@@H](Cc1c[nH]c2ccccc12)C(=O)N[C@H](CC(C)C)C(=O)N[C@@H](Cc1c[nH]c2ccccc12)C(=O)N[C@@H](C(=O)N[C@@H](Cc1c[nH]c2ccccc12)C(=O)NCCO)C(C)C)C(C)C)C(C)C)C(C)C)C(C)C [compound 9036] (For-VGA[dL]A[dV]V[dV]W[dV]W[dL]W[dV]W-NHCH2CH2OH)",
    "ASSAYED_SYSTEM": "P388 mouse leukemia cells",
    "cell viability/% [%]": 94.7
  },
  {
    "COMPOUND": "CC(C)C[C@@H](NC(=O)[C@H](C)NC(=O)CNC(=O)[C@@H](NC=O)C(C)C)C(=O)N[C@@H](C)C(=O)N[C@@H](C(=O)N[C@H](C(=O)N[C@@H](C(=O)N[C@@H](Cc1c[nH]c2ccccc12)C(=O)N[C@@H](C(=O)N[C@@H](Cc1c[nH]c2ccccc12)C(=O)N[C@H](CC(C)C)C(=O)N[C@@H](Cc1c[nH]c2ccccc12)C(=O)N[C@H](CC(C)C)C(=O)N[C@@H](Cc1c[nH]c2ccccc12)C(=O)NCCO)C(C)C)C(C)C)C(C)C)C(C)C [compound 3124] (For-VGA[dL]A[dV]V[dV]W[dV]W[dL]W[dL]W-NHCH2CH2OH)",
    "ASSAYED_SYSTEM": "P388 mouse leukemia cells",
    "cell viability/% [%]": 0.0
  },
  {
    "COMPOUND": "CC(C)C[C@@H](NC(=O)[C@H](C)NC(=O)[C@H](NC(=O)[C@H](C)NC(=O)CNC(=O)[C@@H](NC=O)C(C)C)C(C)C)C(=O)N[C@H](C(=O)N[C@H](CC(C)C)C(=O)N[C@@H](Cc1c[nH]c2ccccc12)C(=O)N[C@@H](C(=O)N[C@@H](Cc1c[nH]c2ccccc12)C(=O)N[C@@H](C(=O)N[C@@H](Cc1c[nH]c2ccccc12)C(=O)N[C@@H](C(=O)N[C@@H](Cc1c[nH]c2ccccc12)C(=O)NCCO)C(C)C)C(C)C)C(C)C)C(C)C [compound 2832] (For-VGA[dV]A[dL]V[dL]W[dV]W[dV]W[dV]W-NHCH2CH2OH)",
    "ASSAYED_SYSTEM": "P388 mouse leukemia cells",
    "cell viability/% [%]": 17.7
  },
  {
    "COMPOUND": "CC(C)C[C@@H](NC(=O)[C@H](Cc1c[nH]c2ccccc12)NC(=O)[C@H](NC(=O)[C@H](Cc1c[nH]c2ccccc12)NC(=O)[C@H](NC(=O)[C@@H](NC(=O)[C@H](NC(=O)[C@H](C)NC(=O)[C@H](NC(=O)[C@H](C)NC(=O)CNC(=O)[C@@H](NC=O)C(C)C)[C@H](C)O)C(C)C)C(C)C)C(C)C)C(C)C)C(=O)N[C@@H](Cc1c[nH]c2ccccc12)C(=O)N[C@@H](C(=O)N[C@@H](Cc1c[nH]c2ccccc12)C(=O)NCCO)C(C)C [compound 6820] (For-VGA[dT]A[dV]V[dV]W[dV]W[dL]W[dV]W-NHCH2CH2OH)",
    "ASSAYED_SYSTEM": "P388 mouse leukemia cells",
    "cell viability/% [%]": 100.0
  }
]
